Sourced from PubChem BioAssay (NCI)

Would you kindly list growth for each of these compounds?
- Test system: 786-0 renal
- protocol text: NCI-60 one-dose screen, 48 h (100 = growth as untreated, 0 = no growth, -100 = all killed)
- condition details: 10 µM
The panel holds about 83,000 compounds, 20% with a hit somewhere; the sample as a whole holds those more often.
One number for each entry, in %.

CN1CCN(c2nc(-c3cccnc3)nc3sc4c(c23)CCCCCC4)CC1: 92.8
CC(C)/C=N/NC(N)=S: 100
CC(=O)Nc1ccc2c(c1)C(N1CC3CCC(CC3)C1)c1ccccc1-2 (configuration not stated): 92.5

Count: 3. Required value per item: growth.
1. COC(=O)C1(C(=O)OC)C2C(=O)C3C(C21)C3(C(=O)OC(C)(C)C)C(=O)OC(C)(C)C (configuration not stated)
2. CCC(O)c1ccc(Br)cc1NC(=O)c1cccc(Cl)c1 (configuration not stated)
3. COc1ccc(NC(=O)CCn2cnc3c(cc(-c4ccccc4)n3-c3ccccc3)c2=O)cc1

102
18.1
88.7

Count: 5. Required value per item: growth.
1. COc1cc(-c2cc(/C=C/C(C)=O)[nH]n2)cc(OC)c1OC
2. COc1cc(C2C(C#N)=C(c3c[nH]c4ccccc34)Nc3nc(N)[nH]c(=O)c32)cc(OC)c1OC (configuration not stated)
3. COc1cc(Nc2ccnc(N3CCN(c4ccnc5cc(Cl)ccc45)CC3)n2)cc(OC)c1
4. Fc1ccc(-c2cc(C(Cl)Cl)no2)cc1
5. COc1cc(CSc2nc3ccc(C)cc3c(=O)n2Cc2ccccc2)cc(OC)c1OC

84.5
100
-17.9
110
46.8

Count: 5. Required value per item: growth.
1. O=S(=O)(NCl)c1ccccc1
2. Nc1c(CNCc2nnn(Cc3ccccc3)c2N)nnn1Cc1ccccc1
3. COc1ccccc1S(=O)(=O)Nc1ccc2c(c1)CN(C)C(=O)N2
4. O=C(NCCc1nccs1)c1cnc2c(S)cccc2c1
5. COc1ccc(/C(=C/c2cc(OC)c(OC)cc2[N+](=O)[O-])C(=O)O)cc1

1: 95.9; 2: 102; 3: 72.7; 4: 47; 5: 106

Count: 4. Required value per item: growth.
1. CCc1cc2n(n1)-c1ncc(C(=O)OC)cc1Oc1ccccc1-2
2. O=C(c1ccc(Cl)cc1)c1no[n+]([O-])c1C(=O)c1ccc(Cl)cc1
3. Cn1c(=O)c2[nH]c(C(O)c3ccc(Cl)cc3)nc2n(C)c1=O (configuration not stated)
4. Cc1ccc(-n2c(-c3cc4c([nH]c5ccccc54)c(-c4cccc(O)c4)n3)n[nH]c2=S)cc1

[100, -34.5, 98.6, 10.8]

Count: 2. Required value per item: growth.
1. Cc1cc(Cl)ccc1Nc1nc(C(F)(F)F)ccc1C(=O)N/N=C/c1ccccc1Cl
2. Clc1cc(Cl)c(OCCCCCCN2CCNCC2)c(Cl)c1

1. -40.1
2. 23.1

====

- Test system: U251 CNS
- protocol text: NCI-60 one-dose screen, 48 h (100 = growth as untreated, 0 = no growth, -100 = all killed)
- condition details: 10 µM
- Protocol: Growth inhibition of the U251 human tumor cell line is measured as a screen for anti-cancer activity. Cells are grown in 96 well plates and exposed to the test compound for 48 hours. Compounds are tested at a single concentration, which is 10^-5 M for most compounds. The reported endpoint is percent growth (GI% or GIPRCNT), where numbers from 0 - 100% represent growth inhibition, and numbers from -100% - 0 represent cell death. For example, a value of 40 represents 60% growth inhibition. […]
Compounds without any hit were thinned out: in the full panel of roughly 83,000, 20% have a hit.
Would you kindly list growth for each of these compounds?
Answers are plain numbers, in %.

COc1cc(-c2nc3ccc(C)cc3[nH]2)ccc1OCC(=O)N=Nc1c(O)[nH]c2ccccc12: -96.3
CCOC(=O)c1ccc(NC(=O)Nc2nncs2)cc1: 17.3
Cc1c(C(=O)N[C@H](CO)Cc2ccccc2)[nH]c2ccc(Cl)cc2c1=O: 92.7
CCc1cc2n(n1)-c1ncc(C(=O)OC)cc1Oc1ccccc1-2: 94.4
C/C(=N\NC(=S)N1CCCC1)c1ccccn1: 4.05

Count: 5. Required value per item: growth.
1. CCCCCCCC/C=C/CCCCCCCCC1=NCCN1CCO
2. O=C(OCc1ncc(-c2ccc(C(F)(F)F)cc2)c(NC2CCCCCC2)n1)c1c(F)c(F)c(F)c(F)c1F
3. CCCOCC(O)CNCCN (configuration not stated)
4. COc1ccc(-c2nsc3c2NC(=O)CC3c2cccc(Cl)c2)cc1 (configuration not stated)
5. COc1ccc(-c2nnc(SCC(=O)c3ccccc3)o2)cc1

1: 54.1; 2: 46.8; 3: 95.5; 4: 35; 5: 98.1

Count: 6. Required value per item: growth.
1. Cc1nc2cc(-n3c(-c4ccc(F)cc4)nc4ccccc4c3=O)ccc2n1Cc1ccccc1
2. O=S(=O)(NC1c2ccccc2Oc2ccccc21)c1ccccc1
3. COc1cc(-c2nc3ccccc3[nH]2)ccc1OCC(=O)N=Nc1c(O)[nH]c2ccccc12
4. CCOC(=O)c1cc2c(n1Cc1ccccc1)-c1oncc1CC2
5. CCN(CC)c1ccc(/C=C/C2=[N+](C)c3ccccc3C2(C)C)c(C)c1
6. C(=C\c1nc2ccccc2s1)/c1ccc(N2CCOCC2)s1

[9.65, 91.9, 32.1, 95.6, 7.12, 67.6]

Count: 6. Required value per item: growth.
1. Cc1cn(C(=O)/C(Cl)=C(/Cl)C(=O)O)c2ccccc12
2. COc1cc([C@@H]2c3cc4c(cc3[C@H](SC(=N)N)[C@H]3COC(=O)[C@H]23)OCO4)cc(OC)c1OC
3. COc1cccc2c1O/C(=C\c1ncc([N+](=O)[O-])n1C)C2=O
4. N#Cc1cnc2ccc(NCc3cnc[nH]3)cc2c1Nc1ccc(F)c(Cl)c1
5. CC(=O)Nc1ccc(Sc2ccc(NC(C)=O)cc2)cc1
6. Cc1ccc(C)c2c1sc1nc3n[nH]c(N)c3c(=N)n12

1. 114
2. 23.2
3. -11.7
4. 58.8
5. 95.9
6. 100

====

- Test system: SNB-75 CNS
- protocol text: NCI-60 one-dose screen, 48 h (100 = growth as untreated, 0 = no growth, -100 = all killed)
- condition details: 10 µM
- Method: Growth inhibition of the SNB-75 human tumor cell line is measured as a screen for anti-cancer activity. Cells are grown in 96 well plates and exposed to the test compound for 48 hours. Compounds are tested at a single concentration, which is 10^-5 M for most compounds. The reported endpoint is percent growth (GI% or GIPRCNT), where numbers from 0 - 100% represent growth inhibition, and numbers from -100% - 0 represent cell death. For example, a value of 40 represents 60% growth inhibition. […]
The panel holds about 83,000 compounds, 20% with a hit somewhere; the sample as a whole holds those more often.
readout name: growth (%)
Give bare numbers, in %.

Nc1nsc(C(=O)c2ccc(O)cc2)n1: 101
CCCCC(=O)N(c1ccc(Nc2c3ccccc3nc3cc([N+](=O)[O-])ccc23)cc1)S(C)(=O)=O: 66.1
S=c1c2ncccc2c(-c2ccccn2)nn1Cc1ccccn1: 77.1

Count: 4. Required value per item: growth.
1. C[N+]1(CC2CO2)CCCCCC1 (stereo not given)
2. Cc1ccc([P+](Cc2ccc([N+](=O)[O-])cc2)(c2ccc(C)cc2)c2ccc(C)cc2)cc1
3. FC(F)(F)c1ccc(-c2ncc(-c3ccc(C(F)(F)F)cc3)c(NCc3cc(C(F)(F)F)cc(C(F)(F)F)c3)n2)cc1
4. CCN1CCN(c2nc(NNC(=O)c3cccc(OC)c3)nc(N3CCN(C(c4ccccc4)c4ccccc4)CC3)n2)CC1

1: 92.9; 2: 30.9; 3: 72.4; 4: 61.9

Count: 2. Required value per item: growth.
1. CS(=O)(=O)Nc1ccc([N+](=O)[O-])cc1Oc1ccccc1
2. CC(=O)OC1Oc2ccccc2-c2oc(=O)c(-c3cc(=O)oc4cc(O)ccc34)cc21 (stereo not given)

[110, 76]

Count: 4. Required value per item: growth.
1. O=C(c1ccc(Cl)cc1)c1no[n+]([O-])c1C(=O)c1ccc(Cl)cc1
2. CC(=O)Oc1ccc(C2=Cc3ccc(OC(C)=O)cc3OC2C)cc1 (stereo not given)
3. CC(C)CCN(CCCNc1c2c(nc3cc(Cl)ccc13)CCCC2)CCC(C)C
4. NC(=O)c1ccc(Br)o1

1. 97.9
2. 49
3. 84.4
4. 95.3

Count: 7. Required value per item: growth.
1. Nc1ccc(Sc2ccc3c4c2cccc4c(=O)n2c4ccccc4nc32)cc1
2. CC(=O)n1nc(C(=O)OC(C)(C)C)c2cc(F)c(F)cc21
3. Cc1cccc2c(Nc3ccc(NS(C)(=O)=O)cc3)c3ccc([N+](=O)[O-])cc3nc12
4. CCN(CC)CC(O)CNc1ccnc2cc(Cl)c(Cl)cc12 (stereo not given)
5. COC(=O)[C@]12CC[C@@H](C)[C@H](C)[C@@H]1C1=CC[C@@H]3[C@@]4(C)CC(=O)[C@H](O)[C@@](C)(CO)[C@@H]4C(=O)C[C@@]3(C)[C@]1(C)CC2
6. C[C@@H]1N=C(c2ccc(Br)cc2)Nc2nc3ccccn3c2C1=O
7. NC1CCC(Nc2nc(NCc3ccc(-c4ccco4)nc3)c3ncn(C4CCCC4)c3n2)CC1 (stereo not given)

1. 43.7
2. 80.2
3. 19.7
4. 92.9
5. -0.588
6. 50.2
7. -46.9
